The origin of these recorded values is patent US6413990B1.

Each entry below lists one item and its recorded melting point value.
Counter-ions that a name gives are not always drawn.

Retrieve melting point measured for CCN(CC)CCN(c1ccc2c(c1)nc(CCc1ccc(C(N)=NO)cc1)n2C)S(=O)(=O)c1cccc(Br)c1 and print it.
156 °C

Recall and state the measured melting point for CCN(CC)CCN(c1ccc2c(c1)nc(CCc1ccc(C(=N)N)cc1)n2C)S(=O)(=O)c1ccc(Cl)cc1 .
88 to 90 °C

Report melting point, nothing else, for this compound: CN(C)c1cccc2c(S(=O)(=O)N(C)c3ccc4c(c3)nc(CCc3ccc(C(=N)N)cc3)n4C)cccc12 (as salt: hydrochloride)
222 to 225 °C
